Form field: TGI (one value per entry).
# System: SF-268 CNS
# procedure-summary: NCI tumour cell line growth inhibition, 48 h
endpoint-label: TGI

compound	value
COc1cc2c(OC)c3cc(C)oc(=O)c3c(O)c2c(O)c1-c1c(OC)cc2c(OC)c3cc(C)oc(=O)c3c(O)c2c1O	42.6 µM
Cc1cc(S(=O)(=O)Nc2n[nH]c(-c3ccc(Cl)cc3)c2C#N)c(S)cc1Cl	> 100 µM
O=c1[nH]ncc2[nH]c(-c3ccccc3)cc12	> 100 µM
COc1cc(S(=O)(=O)Nc2ccc(-c3csc(/N=C\c4ccccc4O)n3)cc2)ccc1Cl	> 100 µM
CC(=O)OCC(OC(C)=O)C(OC(C)=O)C(/C=N\Nc1nc2ccccc2c(=O)[nH]1)OC(C)=O (stereo not drawn)	> 100 µM
O=C(CC(O)(C(F)(F)Cl)C(F)(F)Cl)CC(O)(C(F)(F)Cl)C(F)(F)Cl	> 10 µM
Cc1cc2c(=O)cc(-c3ccc(Cl)cc3Cl)oc2c(C(=O)O)c1C	> 100 µM
CCOC(=O)c1cc2c(OC)cc(OC)cc2oc1=O	> 100 µM
CC(=O)NS(=O)(=O)c1ccc(-n2nc(-c3ccccc3)cc2-c2cc(O)ccc2O)cc1	> 100 µM
O=P1(O)c2ccccc2CSCc2ccccc21	> 100 µM
Nc1ccc(-c2nnc(-c3c(Cl)c(Cl)c(Cl)c(Cl)c3-c3nc4ccc(C(=O)c5ccccc5)cc4[nH]3)o2)cc1	> 100 µM
c1ccc2c(CNCCCN3CCN(CCCNCc4cccc5ccccc45)CC3)cccc2c1	6.11 µM
COc1cc2c3c(n(CCCNC(C)(C)CO)c(=O)c2cc1OC)-c1cc2c(cc1C3=O)OCO2	56.6 µM

---

Form field: TGI (one value per entry).
# Test system: U251 CNS
# procedure-summary: NCI tumour cell line growth inhibition, 48 h
endpoint-label: TGI

compound	experimental-system	endpoint-label	value
CCOC(=O)Nc1nc(-c2ccccc2)c(C)s1	U251 CNS	TGI	> 100 µM
O=C(CSc1nc(-c2ccccc2)c(-c2ccccc2)[nH]1)N/N=C/c1ccc([N+](=O)[O-])cc1	U251 CNS	TGI	27.5 µM
COc1ccc2c(c1)OC(N)=C(C#N)C2c1ccc(F)c(F)c1 (stereo not drawn)	U251 CNS	TGI	> 45.5 µM
O=C(NC(=S)Nc1ccc(-c2nc3ccccc3[nH]2)cc1)c1ccc2ccccc2c1	U251 CNS	TGI	18.1 µM
Fc1cc(C2=Nn3c(nnc3-c3cc(F)c(Cl)cc3Cl)SC2)c(Cl)cc1Cl	U251 CNS	TGI	64 µM
O=C(c1ccccc1)c1ccc(N2C(=O)/C(=C/c3cccc([N+](=O)[O-])c3)N=C2c2ccccc2)c(N2C(=O)/C(=C/c3cccc([N+](=O)[O-])c3)N=C2c2ccccc2)c1	U251 CNS	TGI	> 100 µM
C=C1CC2(C)CCC(OC(=O)C3(C)OC3C)C(C)(OC(C)=O)C2CC1=C(C)C (stereo not drawn)	U251 CNS	TGI	> 100 µM
CN(CC(=O)O)S(=O)(=O)c1ccc(Cl)cc1	U251 CNS	TGI	> 100 µM
COc1cc(C)cc(C(=O)OCc2ccccc2)c1C1=C(Cl)C(=O)C(Cl)=CC1=O	U251 CNS	TGI	> 10 µM
CCOC(=O)C1C(c2ccccc2)C2(C#N)C(=N)OC1(C)C2(C#N)C#N (stereo not drawn)	U251 CNS	TGI	> 100 µM
COc1ccc(/C=C2\N=C(N3CCOCC3)NC2=O)cc1	U251 CNS	TGI	> 100 µM
CO[C@@H]1C[C@H]2[C@@H]3CC[C@H]([C@@H](C)COC(C)=O)[C@@]3(C)CC[C@@H]2[C@@]2(C)CC[C@H]3C[C@]312	U251 CNS	TGI	25.8 µM
C#CCOCCCC(=O)O	U251 CNS	TGI	> 100 µM
Cc1cc(N(C)C)ccc1N=Nc1ccc2ncccc2c1	U251 CNS	TGI	> 100 µM
Clc1ccc(Nc2ncnc3ccccc23)cc1	U251 CNS	TGI	> 100 µM
COc1ccc(-c2nnc3c4ccccc4sn23)cc1	U251 CNS	TGI	> 100 µM
CCOC(=O)c1csc(NC(=O)CCN2CCOCC2)n1	U251 CNS	TGI	> 100 µM
CC12OC(C(=O)C13CC3)C1C(=O)c3cccc(O)c3C(=O)C12 (stereo not drawn)	U251 CNS	TGI	> 58.8 µM
CC(C)c1ccc2c(c1)CCC1C(C)(CN)CCCC21C (stereo not drawn)	U251 CNS	TGI	2.83 µM
CN1CCN(C(=O)OCc2nc3c(N4CCOCC4)nc(-c4ccccc4)nc3n2C)CC1	U251 CNS	TGI	3.17 µM
O=C(O)c1cc(C(=O)C(=O)c2cc(C(=O)O)c(O)c3ccccc23)c2ccccc2c1O	U251 CNS	TGI	> 100 µM
COc1cc(/C=C(\C)c2ccc3c(c2)OCO3)cc(OC)c1OC	U251 CNS	TGI	> 100 µM
CCCCN(CCCC)C(=O)C(=O)C(C(=O)C(=O)OC)c1nc2ccccc2o1 (stereo not drawn)	U251 CNS	TGI	> 100 µM
CC1=CC=C2C(C)(C)CC[C@@H]3OC(=O)[C@H]1[C@]23C	U251 CNS	TGI	> 100 µM
CCc1nc2c(n1CC)C(=O)c1ccccc1C2=O	U251 CNS	TGI	> 100 µM
Cc1ccccc1C(C#N)/C(=N/NC(N)=S)C(=O)Nc1c(C)cccc1C (stereo not drawn)	U251 CNS	TGI	> 100 µM
Cc1cc(S(=O)(=O)Nc2n[nH]c(-c3ccc(Cl)cc3)c2C#N)c(S)cc1Cl	U251 CNS	TGI	> 100 µM
CCOC(=O)Nc1ccc2c3c(cccc13)-c1ccccc1-2	U251 CNS	TGI	> 100 µM
CC1NC(=O)c2c(-c3ccccc3)nn(-c3ccccc3)c2NC1=O (stereo not drawn)	U251 CNS	TGI	> 100 µM
CN(NC(=O)c1ccc(Cl)cc1)C1=NCCCCN1	U251 CNS	TGI	> 100 µM
O=C1CCN(CCC(F)(F)C(F)(F)C(F)(F)C(F)(F)F)C(=S)N1	U251 CNS	TGI	> 100 µM
CN1C(=O)CNS1(=O)=O	U251 CNS	TGI	> 100 µM
N#CCC(=O)N/N=C(/C(=O)Nc1ccccc1)C1C(=O)N(c2ccccc2)N=C1N (stereo not drawn)	U251 CNS	TGI	> 100 µM
COCN1C(=O)[C@@H]2CCCN2C(=O)c2ccc(Cl)cc21	U251 CNS	TGI	> 100 µM
CCOC(=O)Cc1csc(Nc2nc(O)c(C3=c4ccccc4=NC3=O)s2)n1	U251 CNS	TGI	39.6 µM
CCOC(=O)C(=O)N=Nc1c(O)[nH]c2ccccc12	U251 CNS	TGI	> 100 µM
CCN(CC)CCC1CCCCN1CC(=O)N1c2ccccc2NC(=O)CC1C (stereo not drawn)	U251 CNS	TGI	> 100 µM
COC(=O)CCC(=O)C(CC(=O)OC)C(=O)CCC(=O)NCCc1ccccc1 (stereo not drawn)	U251 CNS	TGI	> 100 µM
NNC(=S)N/N=C/c1ccccn1	U251 CNS	TGI	> 100 µM
CC(=O)c1cc2sc3ccccc3c2[nH]1	U251 CNS	TGI	> 100 µM
CCN1C2=C(SC(=S)C1=C1SC(C(=O)c3ccccc3)=C(C(=O)c3ccccc3)S1)SC(=Nc1ccccc1)C2=O	U251 CNS	TGI	> 60.5 µM
CC(C)(C)OC(=O)CCC1NC(=O)[C@@H]2Cc3c([nH]c4ccccc34)C(c3ccccc3)N2C1=O (stereo partly drawn)	U251 CNS	TGI	43.3 µM
N#CC1(C#N)C2C=CC(C3CC=CC32)C1(C#N)C#N (stereo not drawn)	U251 CNS	TGI	17.6 µM
